Here the recorded IC50 is given for each entry.
study target: benzodiazepine site of the GABA-A receptor
assay summary: Benzodiazepine Receptor Binding Assay (inhibition of 3H-flunitrazepam binding)
conditions: ca. 3 nM 3H-flunitrazepam, 10-20 min at 25° C., membranes; over 10,000 = not active
Form entry: value (µM) — number only.

1. O=C1CN2C(=C1C(=O)Nc1c(F)cccc1F)Nc1ccccc12 [CP #5]
0.0801
2. CN(C)c1ccc(NC(=O)C2=C3Nc4ccccc4N3CC2=O)cc1 [CP #2]
1.74

Can you share its IC50? I mean this molecule: O=C1CN2C(=C1C(=O)Nc1ccncc1)Nc1ccccc12 [CP #1]
7.22
